Assign log10 of MIC to each entry below.
- Tested on: Staphylococcus aureus
- Test details: Antibacterial activity against methicillin-sensitive Staphylococcus aureus ATCC 29213 by microbroth dilution method
- Type: functional
- Condition notes: Staphylococcus aureus, ATCC 29213; read-out: MIC
# values: log10(MIC), units µg/mL

For Staphylococcus aureus, provide log10 of MIC of COc1ccc2cc1Oc1cc(ccc1OC)CCC(N1CCN(C)CC1)CCCC2 (configuration not stated) please. 2.00

What do we get for COc1ccc2cc1Oc1cc(ccc1OC)CCC(NCCCc1ccccc1)CCCC2 (configuration not stated) ? 1.40

What do we get for COc1ccc2cc1Oc1cccc(c1)CCC(NCCc1ccc(F)cc1)CC2 (configuration not stated) ? 1.40

What do we get for "O=C(N[C@H](CO)[C@H](O)c1ccc([N+](=O)[O-])cc1)C(Cl)Cl" ? 0.80

What do we get for COc1ccc2cc1Oc1cc(ccc1OC)CCC(NCCc1ccc3ccccc3c1)CCCC2 (configuration not stated) ? 1.10

What do we get for COc1ccc2cc1Oc1cc(ccc1OC)CCC(NCCc1ccc(F)cc1)CCCC2 (configuration not stated) ? 1.40

What do we get for COc1ccc2cc1Oc1cc(ccc1OC)CCC(NC/C=C(\C)CCC=C(C)C)CCCC2 (configuration not stated) ? 1.10

What do we get for COc1ccc2cc1Oc1cc(ccc1OC)CCC(NCCc1ccc(Br)cc1)CCCC2 (configuration not stated) ? 1.10

What do we get for COc1ccc2cc1Oc1cc(ccc1OC)CCC(NCCCCc1ccccc1)CCCC2 (configuration not stated) ? 1.40

What do we get for COc1ccc2cc1Oc1cc(ccc1OC)CCC(NCCc1ccc3c(c1)OCO3)CCCC2 (configuration not stated) ? 1.70

* * *

- Test system: Bacillus subtilis
- Test details: Antibacterial activity against Bacillus subtilis ATCC 23857 by microbroth dilution method
- Assay type: functional
- Condition notes: Bacillus subtilis, ATCC 23857; read-out: MIC
Value kind: log10 MIC (log10 of the value in µg/mL)
# values: log10(MIC), units µg/mL

Which log10 MIC value belongs to COc1ccc2cc1Oc1cc(ccc1OC)CCC(NCCc1ccc3ccccc3c1)CCCC2 (stereo not drawn) ? 0.80

What do we get for COc1ccc2cc1Oc1cc(ccc1OC)CCC(NCCc1ccc(O)cc1)CCCC2 (stereo not drawn) ? 1.70

What do we get for COc1ccc2cc1Oc1cccc(c1)CCCCC(NCCc1ccc(F)cc1)CC2 (stereo not drawn) ? 0.80

What do we get for COc1ccc2cc1Oc1cc(ccc1OC)CCC(NCCCc1ccccc1)CCCC2 (stereo not drawn) ? 1.40

What do we get for COc1ccc2cc1Oc1cc(ccc1OC)CCC(NCCN(C)C)CCCC2 (stereo not drawn) ? 2.00

What do we get for COc1ccc2cc1Oc1cc(ccc1OC)CCC(NCCc1ccc(Br)cc1)CCCC2 (stereo not drawn) ? 0.80

What do we get for COc1ccc2cc1Oc1cc(ccc1OC)CCC(N1CCN(C)CC1)CCCC2 (stereo not drawn) ? 1.70

What do we get for COc1ccc2cc1Oc1cc(ccc1OC)CCC(NCCc1ccc3c(c1)OCO3)CCCC2 (stereo not drawn) ? 1.10

What do we get for COc1ccc2cc1Oc1cc(ccc1OC)CCC(NCCc1ccccn1)CCCC2 (stereo not drawn) ? 2.00

What do we get for "O=C(N[C@H](CO)[C@H](O)c1ccc([N+](=O)[O-])cc1)C(Cl)Cl" ? 0.80

What do we get for COc1ccc2cc1Oc1cc(ccc1OC)CCC(NCCc1ccc(Cl)cc1)CCCC2 (stereo not drawn) ? 0.80

What do we get for COc1ccc2cc1Oc1cc(ccc1OC)CCC(NCCc1ccc(F)cc1)CCCC2 (stereo not drawn) ? 1.10

What do we get for COc1ccc2cc1Oc1cc(ccc1OC)CCC(NCCc1cccc(F)c1)CCCC2 (stereo not drawn) ? 1.10

What do we get for COc1ccc2cc1Oc1cc(ccc1OC)CCC(NCCc1ccccc1F)CCCC2 (stereo not drawn) ? 1.10

What do we get for COc1ccc2cc1Oc1cc(ccc1OC)CCC(NC/C=C(\C)CCC=C(C)C)CCCC2 (stereo not drawn) ? 0.49

What do we get for COc1cc2ccc1Oc1cc(ccc1OC)CCCCC(NCCc1ccc(F)cc1)CC2 (stereo not drawn) ? 1.10

What do we get for "COc1ccc2cc1Oc1cc(ccc1OC)CCC(NCCc1ccc(F)cc1)CC2" ? 1.70

What do we get for COc1ccc2cc1Oc1cc(ccc1OC)CCC(NCc1ccc(C(F)(F)F)cc1)CCCC2 (stereo not drawn) ? 1.10

What do we get for Oc1ccc2cc1Oc1cc(ccc1O)CCC(NCCc1ccccc1)CCCC2 (stereo not drawn) ? 1.40

What do we get for COc1ccc2cc1Oc1cc(ccc1OC)CCC(N)CCCC2 (stereo not drawn) ? 2.00

What do we get for COc1ccc2cc1Oc1ccc(cc1)CCC(NCCc1ccc(F)cc1)CCCC2 (stereo not drawn) ? 0.80

What do we get for COc1ccc2cc1Oc1cc(ccc1OC)CCC(NCCCCc1ccccc1)CCCC2 (stereo not drawn) ? 1.10

What do we get for COc1ccc2cc1Oc1cccc(c1)CCC(NCCc1ccc(F)cc1)CC2 (stereo not drawn) ? 1.40

* * *

- System: Escherichia coli
- Test details: Antibacterial activity against Escherichia coli harboring TolC deletion mutant by microbroth dilution method
- Type: functional
- Condition notes: Escherichia coli; read-out: MIC
Assign MIC to each entry below.
Give the quantity in µg/mL, number only.

Which MIC value belongs to COc1ccc2cc1Oc1cc(ccc1OC)CCC(NCCc1ccc3c(c1)OCO3)CCCC2 (stereo not given) ? 12.5

What do we get for "COc1ccc2cc1Oc1cc(ccc1OC)CCC(NCCc1ccc(F)cc1)CC2" ? 50

What do we get for COc1ccc2cc1Oc1cc(ccc1OC)CCC(NCCc1cccc(F)c1)CCCC2 (stereo not given) ? 25

What do we get for Oc1ccc2cc1Oc1cc(ccc1O)CCC(NCCc1ccccc1)CCCC2 (stereo not given) ? 25

What do we get for COc1ccc2cc1Oc1ccc(cc1)CCC(NCCc1ccc(F)cc1)CCCC2 (stereo not given) ? 6.25

What do we get for Oc1ccc2cc1Oc1cc(ccc1O)CCC(NCc1ccccc1)CCCC2 (stereo not given) ? 50

What do we get for COc1cc2ccc1Oc1cc(ccc1OC)CCCCC(NCCc1ccc(F)cc1)CC2 (stereo not given) ? 25

* * *

- Test system: Escherichia coli
- Test details: Antibacterial activity against Escherichia coli harboring TolC deletion mutant by microbroth dilution method
- Assay type: functional
Assign MIC to each entry below.

For Escherichia coli, provide MIC of COc1ccc2cc1Oc1cc(ccc1OC)CCC(N[C@@H]1CCCc3ccccc31)CCCC2 (stereo in doubt; 25) please. 100 µg/mL

What do we get for COc1ccc2cc1Oc1cc(ccc1OC)CCC(N[C@H]1CCCc3ccccc31)CCCC2 (stereo in doubt; 27) ? >100 µg/mL

What do we get for COc1ccc2cc1Oc1cc(ccc1OC)CCC(N[C@@H]1CCCc3ccccc31)CCCC2 (stereo in doubt; 26) ? 25 µg/mL

What do we get for COc1ccc2cc1Oc1cc(ccc1OC)CCC(N[C@H]1CCCc3ccccc31)CCCC2 (stereo in doubt; 28) ? 25 µg/mL

* * *

- System: Escherichia coli
- Test details: Antibacterial activity against Escherichia coli harboring TolC deletion mutant by microbroth dilution method
- Assay type: functional
- Condition notes: Escherichia coli; read-out: MIC
Assign MIC to each entry below.

Which MIC value belongs to COc1ccc2cc1Oc1cc(ccc1OC)CCC(NC(=O)/C=C/c1ccc(F)cc1)CCCC2 (configuration not stated) ? > 100 µg/mL

What do we get for COc1ccc2cc1Oc1cc(ccc1OC)CCC(OC(=O)Cc1ccccc1)CCCC2 (configuration not stated) ? > 100 µg/mL

What do we get for COc1ccc2cc1Oc1cc(ccc1OC)CCC(OC(=O)NCCc1ccccc1)CCCC2 (configuration not stated) ? > 100 µg/mL

What do we get for COc1ccc2cc1Oc1cc(ccc1OC)CCC(OS(=O)(=O)c1ccc(C)cc1)CCCC2 (configuration not stated) ? > 100 µg/mL

What do we get for COc1ccc2cc1Oc1cc(ccc1OC)CCC(NC(=O)NCCc1ccc(F)cc1)CCCC2 (configuration not stated) ? > 100 µg/mL

What do we get for COc1ccc2cc1Oc1cc(ccc1OC)CCC(OC(=O)Nc1ccc(F)cc1)CCCC2 (configuration not stated) ? > 100 µg/mL

What do we get for COc1ccc2cc1Oc1cc(ccc1OC)CCC(NCCN(C)C)CCCC2 (configuration not stated) ? > 100 µg/mL

What do we get for CCN(CC)C1CCCCc2ccc(OC)c(c2)Oc2cc(ccc2OC)CC1 (configuration not stated) ? > 100 µg/mL

What do we get for COc1ccc2cc1Oc1cc(ccc1OC)CCC(Nc1ccc(Cl)cc1)CCCC2 (configuration not stated) ? > 100 µg/mL

What do we get for COc1ccc2cc1Oc1cc(ccc1OC)CCC(OC(=O)NCc1ccccc1)CCCC2 (configuration not stated) ? > 100 µg/mL

What do we get for "O=C(N[C@H](CO)[C@H](O)c1ccc([N+](=O)[O-])cc1)C(Cl)Cl" ? 0.78 µg/mL

What do we get for COc1ccc2cc1Oc1cc(ccc1OC)CCC(NCCc1ccc(O)cc1)CCCC2 (configuration not stated) ? 100 µg/mL

What do we get for COc1ccc(CCNC2CCCCc3ccc(OC)c(c3)Oc3cc(ccc3OC)CC2)cc1OC (configuration not stated) ? > 100 µg/mL

What do we get for COc1ccc2cc1Oc1cc(ccc1OC)CCC(OC(C)=O)CCCC2 (configuration not stated) ? 12.5 µg/mL

What do we get for COc1ccc2cc1Oc1cc(ccc1OC)CCC(NCCc1ccccn1)CCCC2 (configuration not stated) ? 100 µg/mL

What do we get for COc1ccc2cc1Oc1cc(ccc1OC)CCC(N(CCO)CCO)CCCC2 (configuration not stated) ? > 100 µg/mL

What do we get for COc1ccc2cc1Oc1cc(ccc1OC)CCC(NCCc1ccc(Cl)cc1)CCCC2 (configuration not stated) ? 6.25 µg/mL

Where do these numbers come from? They come from ChEMBL document CHEMBL4477227.
